# assay.system: α1A-ARS (Homo sapiens, UniProt P35348)
# measurement.description: Calcium flux assay (Calcium 6 dye) in cells expressing an α1-AR
# Assay type: cell-based
# assay.conditions: read-out: Average Emax
property.name: Emax

For orientation, consider the following solved cases.
- compound.smiles: "Cc1c(CC2=NCCN2)cc(Cl)c2[nH]ccc12"
  property.name: "Emax"
  result: "> 61%"
- compound.smiles: "Cc1cc2c(C)c(CC3=NCCN3)cc(Cl)c2o1"
  property.name: "Emax"
  result: "21 to 60%"
- compound.smiles: "FC(F)(F)Cc1cc(Cl)ccc1CC1=NCCN1"
  property.name: "Emax"
  result: "21 to 60%"

Fetch value of Emax on α1A-ARS (Homo sapiens, UniProt P35348) for Cc1cccc(Cl)c1CC1=NCCN1 .
21 to 60%

====

# assay.system: α1A-ARS (Homo sapiens, UniProt P35348)
# measurement.description: Calcium flux assay (Calcium 6 dye) in cells expressing an α1-AR
# Type: cell-based
# assay.conditions: calcium flux, α1A-AR; maximum effect relative to full agonist epinephrine; read-out: Average Emax
property.name: Emax

Identify the reported Emax for the following entry. Cc1c(CC2=NCCN2)ccc(Cl)c1-c1ncco1
21 to 60%

Please list Emax recorded for the compound Clc1ccc(CC2=NCCN2)c(-c2ccco2)c1
> 61%

Please list Emax recorded for the compound Clc1ccc(CC2=NCCN2)c(Cc2ccccc2)c1
< 20%

Determine its reported Emax: C[C@H](O)c1ccc(CC2=NCCN2)c(Cl)c1
> 61%

Retrieve Emax measured for Clc1ccc(CC2=NCCN2)cc1-c1ncco1 and print it.
21 to 60%

====

Listed molecules paired with reported Emax
# assay.system: α1A-ARS (Homo sapiens, UniProt P35348)
# Sequence (P35348 1-466): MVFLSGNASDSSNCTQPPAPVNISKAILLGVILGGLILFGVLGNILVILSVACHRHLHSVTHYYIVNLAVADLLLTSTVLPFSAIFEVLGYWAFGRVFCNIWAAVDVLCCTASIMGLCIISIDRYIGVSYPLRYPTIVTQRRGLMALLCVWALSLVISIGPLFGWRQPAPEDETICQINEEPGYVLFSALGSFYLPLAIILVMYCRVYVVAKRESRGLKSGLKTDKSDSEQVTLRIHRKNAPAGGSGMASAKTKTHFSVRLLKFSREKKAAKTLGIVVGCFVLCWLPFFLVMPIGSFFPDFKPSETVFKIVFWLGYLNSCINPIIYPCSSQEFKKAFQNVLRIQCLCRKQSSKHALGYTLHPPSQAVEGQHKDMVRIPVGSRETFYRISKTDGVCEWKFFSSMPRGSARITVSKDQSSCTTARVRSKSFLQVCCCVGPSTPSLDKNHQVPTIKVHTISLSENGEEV
# measurement.description: Calcium flux assay (Calcium 6 dye) in cells expressing an α1-AR
# Assay type: cell-based
# assay.conditions: read-out: Average Emax
# Protocol: Calcium flux experimental design: alpha-1 adrenergic receptors (α1-ARs) couple to Gq proteins, which results in downstream activation of phospholipase C and release of calcium from intracellular stores. Intracellular calcium increase upon α1-AR activation can be detected by Calcium 6 dye. […] For each assay well, baseline Calcium 6 fluorescence was detected for 18 seconds prior to 12 μL compound addition at 12 μL per second. […]

Below, 5 molecules whose answers are already recorded.
- molecule: "FC(F)Oc1cc(Cl)ccc1CC1=NCCN1 [Compound 114]"
  Emax: "21 to 60%"
- molecule: "Fc1ccc(CC2=NCCN2)c(C(F)(F)F)c1 [Compound 80]"
  Emax: "21 to 60%"
- molecule: "Cc1cc(Cl)cc(C)c1CC1=NCCN1 [Compound 123]"
  Emax: "> 61%"
- molecule: "Cc1coc2c(Cl)cc(CC3=NCCN3)c(C)c12 [Compound 107]"
  Emax: "21 to 60%"
- molecule: "FC(F)c1ccc(CC2=NCCN2)c(Cl)c1 [Compound 138]"
  Emax: "> 61%"

Identify the reported Emax for the following entry. COc1c(CC2=NCCN2)ccc2occc12 [Compound 47]
21 to 60%

Look up Emax of FC(F)Oc1ccc(Cl)c(CC2=NCCN2)c1 [Compound 161] and report it.
> 61%

State its Emax for this molecule: N#Cc1ccc(CC2=NCCN2)c(C(F)(F)F)c1 [Compound 83]
21 to 60%

====

# assay.system: α1A-ARS (Homo sapiens, UniProt P35348)
# measurement.description: Calcium flux assay (Calcium 6 dye) in cells expressing an α1-AR
# Assay type: cell-based
# assay.conditions: calcium flux, α1A-AR; mean of at least three experiments; read-out: Average PEC50
pEC50: −log10 of the molar value.
property.name: pEC50

- compound.smiles: "Cc1c(CC2=NCCN2)cc(C)c2occc12"
  assay.system: "α1A-ARS (Homo sapiens, UniProt P35348)"
  property.name: "pEC50"
  result: "6.01 to 8.00"
- compound.smiles: "Clc1ccc(CC2=NCCN2)cc1-n1cccn1"
  assay.system: "α1A-ARS (Homo sapiens, UniProt P35348)"
  property.name: "pEC50"
  result: "6.01 to 8.00"
- compound.smiles: "CC(C)c1cc(Cl)ccc1CC1=NCCN1"
  assay.system: "α1A-ARS (Homo sapiens, UniProt P35348)"
  property.name: "pEC50"
  result: "6.01 to 8.00"
- compound.smiles: "Clc1ccc(CC2=NCCN2)c(-c2cccs2)c1"
  assay.system: "α1A-ARS (Homo sapiens, UniProt P35348)"
  property.name: "pEC50"
  result: "> 8.01"

GET pEC50 | system: α1A-ARS (Homo sapiens, UniProt P35348) | item: Fc1ccc(CC2=NCCN2)c(-c2ccccc2)c1
> 8.01

====

# assay.system: α1A-ARS (Homo sapiens, UniProt P35348)
# measurement.description: Calcium flux assay (Calcium 6 dye) in cells expressing an α1-AR
# Assay type: cell-based
# assay.conditions: calcium flux, α1A-AR; mean of at least three experiments; read-out: Average PEC50
pEC50: −log10 of the molar value.
property.name: pEC50

- compound.smiles: "Cc1c(CC2=NCCN2)cccc1-c1ncco1"
  pEC50: "6.01 to 8.00"
- compound.smiles: "Fc1ccc(CC2=NCCN2)c(C2CC2)c1"
  pEC50: "6.01 to 8.00"
- compound.smiles: "Cc1c(CC2=NCCN2)cc(Cl)c2[nH]ncc12"
  pEC50: "6.01 to 8.00"
- compound.smiles: "c1cc(CC2=NCCN2)c2[nH]ccc2c1"
  pEC50: "6.01 to 8.00"
- compound.smiles: "Clc1ccc(CC2=NCCN2)c(-c2ccccc2)c1"
  pEC50: "6.01 to 8.00"

// next item, pEC50 requested
Give me measured pEC50, please, for this compound: Cc1c(CC2=NCCN2)cc(Cl)c2c1ccn2C
> 8.01

====

Entries annotated with measured pEC50
# assay.system: α1A-ARS (Homo sapiens, UniProt P35348)
# measurement.description: Calcium flux assay (Calcium 6 dye) in cells expressing an α1-AR
# Assay type: cell-based
# assay.conditions: calcium flux, α1A-AR; mean of at least three experiments; read-out: Average PEC50
pEC50: −log10 of the molar value.

- compound.smiles: "Cc1c(CC2=NCCN2)ccc(S(C)(=O)=O)c1Cl"
  assay.system: "α1A-ARS (Homo sapiens, UniProt P35348)"
  property.name: "pEC50"
  result: "< 6.00"

Give the reported value of pEC50 for this record: Cc1c(CC2=NCCN2)ccc(Cl)c1-c1ncco1
6.01 to 8.00

Provide one value: measured pEC50 of FC(F)(F)c1ccc(CC2=NCCN2)c(Cl)c1
6.01 to 8.00

====

Emax for assorted molecules
# assay.system: α1A-ARS (Homo sapiens)
# measurement.description: Calcium flux assay (Calcium 6 dye) in cells expressing an α1-AR
# Type: cell-based
# assay.conditions: read-out: Average Emax

Illustrative cases are given below, each with its answer.
- compound.smiles: "FC(F)(F)c1ccc(Cl)c(CC2=NCCN2)c1"
  Emax: "> 61%"
- compound.smiles: "FC(F)(F)c1cc(Cl)ccc1CC1=NCCN1"
  Emax: "> 61%"
- compound.smiles: "Cc1c(CC2=NCCN2)ccc2c1CCO2"
  Emax: "21 to 60%"

Fetch value of Emax on α1A-ARS (Homo sapiens) for CCc1cc(F)ccc1CC1=NCCN1 .
21 to 60%

Please report Emax with α1A-ARS (Homo sapiens) for item Cc1cc(CC2=NCCN2)cc(C(F)(F)F)c1 .
> 61%

# return Emax of c1cc(CC2=NCCN2)c2occc2c1 (system: α1A-ARS (Homo sapiens))
> 61%

# return Emax of Cc1cc(OC(F)(F)F)ccc1CC1=NCCN1 (system: α1A-ARS (Homo sapiens))
21 to 60%

====

# assay.system: α1A-ARS (Homo sapiens)
# measurement.description: Calcium flux assay (Calcium 6 dye) in cells expressing an α1-AR
# Format: cell-based
# assay.conditions: calcium flux, α1A-AR; maximum effect relative to full agonist epinephrine; read-out: Average Emax
property.name: Emax

Solved cases below.
- compound.smiles: "CCc1cc(S(C)(=O)=O)ccc1CC1=NCCN1"
  assay.system: "α1A-ARS (Homo sapiens)"
  property.name: "Emax"
  result: "> 61%"
- compound.smiles: "FC(F)(F)c1ccc(CC2=NCCN2)c(-n2cccn2)c1"
  assay.system: "α1A-ARS (Homo sapiens)"
  property.name: "Emax"
  result: "> 61%"
- compound.smiles: "Clc1ccc(CC2=NCCN2)c(CC2CCOCC2)c1"
  assay.system: "α1A-ARS (Homo sapiens)"
  property.name: "Emax"
  result: "< 20%"

Name the recorded Emax of the compound listed here: Clc1ccc(CC2=NCCN2)c(-c2nccs2)c1
> 61%

Please indicate Emax recorded for Cc1c(CC2=NCCN2)cccc1-c1ccnn1C
21 to 60%
